- system tested: human F508del-CFTR (Homo sapiens, UniProt P13569, DEL508-508)
- Sequence (P13569 with tags, fused parts or gaps DEL508-508): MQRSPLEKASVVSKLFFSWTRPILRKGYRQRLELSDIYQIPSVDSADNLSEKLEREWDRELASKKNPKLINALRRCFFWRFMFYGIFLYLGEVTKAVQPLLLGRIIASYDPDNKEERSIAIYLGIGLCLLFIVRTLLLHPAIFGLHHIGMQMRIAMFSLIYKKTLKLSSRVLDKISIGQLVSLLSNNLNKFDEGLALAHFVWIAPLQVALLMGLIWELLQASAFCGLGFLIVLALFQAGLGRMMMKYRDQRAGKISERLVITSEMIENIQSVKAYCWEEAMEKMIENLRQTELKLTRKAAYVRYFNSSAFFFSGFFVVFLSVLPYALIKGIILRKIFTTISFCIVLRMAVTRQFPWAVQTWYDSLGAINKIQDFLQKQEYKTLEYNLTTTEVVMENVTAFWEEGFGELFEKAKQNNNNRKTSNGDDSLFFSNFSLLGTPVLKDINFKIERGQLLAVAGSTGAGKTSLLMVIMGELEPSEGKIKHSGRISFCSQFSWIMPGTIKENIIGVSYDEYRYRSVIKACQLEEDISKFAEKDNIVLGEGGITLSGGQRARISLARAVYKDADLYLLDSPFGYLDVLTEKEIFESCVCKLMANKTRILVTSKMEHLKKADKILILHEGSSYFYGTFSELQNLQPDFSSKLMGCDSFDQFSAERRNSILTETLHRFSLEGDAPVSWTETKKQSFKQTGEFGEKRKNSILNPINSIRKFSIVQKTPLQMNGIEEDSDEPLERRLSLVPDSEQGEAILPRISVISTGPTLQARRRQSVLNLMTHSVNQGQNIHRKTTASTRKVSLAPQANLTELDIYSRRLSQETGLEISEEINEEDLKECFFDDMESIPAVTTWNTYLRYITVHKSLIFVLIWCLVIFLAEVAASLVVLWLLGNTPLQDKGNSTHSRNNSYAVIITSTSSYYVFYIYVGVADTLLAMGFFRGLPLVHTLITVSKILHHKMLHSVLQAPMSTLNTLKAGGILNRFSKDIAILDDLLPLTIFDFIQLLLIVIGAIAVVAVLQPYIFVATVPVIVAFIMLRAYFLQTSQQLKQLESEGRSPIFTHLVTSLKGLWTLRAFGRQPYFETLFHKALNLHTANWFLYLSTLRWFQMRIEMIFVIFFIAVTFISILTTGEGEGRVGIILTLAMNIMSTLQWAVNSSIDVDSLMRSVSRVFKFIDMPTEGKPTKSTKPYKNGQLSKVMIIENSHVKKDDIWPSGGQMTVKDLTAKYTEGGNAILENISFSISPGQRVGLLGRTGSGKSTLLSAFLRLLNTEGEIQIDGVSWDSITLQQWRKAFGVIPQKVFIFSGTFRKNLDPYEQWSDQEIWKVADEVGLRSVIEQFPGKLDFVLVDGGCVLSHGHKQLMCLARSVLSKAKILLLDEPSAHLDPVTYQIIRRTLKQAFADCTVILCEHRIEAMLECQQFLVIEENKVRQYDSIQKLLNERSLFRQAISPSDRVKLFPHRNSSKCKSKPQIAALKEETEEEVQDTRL
- method description: F508del-CFTR cell surface expression (corrector activity), DiscoveRx ß-galactosidase complementation chemiluminescence assay in recombinant U2OS cell line;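 also: U2OS cells co-expressing ProLink-tagged F508del-CFTR and a membrane-anchored enzyme acceptor, where more surface CFTR restores β-galactosidase activity measured by chemiluminescence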
- run parameters: EC50, F508del-CFTR cell surface expression, U2OS cells, 16h compound incubation; geomean values

line notation | value unit | EC50
Cc1cc(CCNC(=O)[C@@H]2CC(=O)N(C)[C@@H](CC(C)C)C(=O)N(C)[C@H](Cc3cccc4ccccc34)C(=O)N[C@H](Cc3ccccc3)COc3cnc4ccccc4c3C(=O)N2)on1 | nM | 199
CC(C)C[C@H]1C(=O)N(C)[C@@H](CC2CCCC2)C(=O)N[C@H](Cc2ccccc2)COc2cnc3ccc(F)cc3c2C(=O)N[C@H](C(=O)NCCc2noc(C3CC3)n2)CC(=O)N1C | nM | 241
Cc1nc2ccc3c(c2o1)C(=O)N[C@H](C(=O)NCCc1c(F)cccc1F)CC(=O)N(C)[C@@H](CC(C)C)C(=O)N1CCCC[C@@H]1C(=O)N[C@H](Cc1ccccc1)CO3 | nM | 414
[2H]C1([2H])Oc2ccc3c(c2O1)C(=O)N[C@H](C(=O)NCCc1ccc(-n2nccn2)cc1)CC(=O)N(C)[C@@H](CC(C)C)C(=O)N1CCCC[C@@H]1C(=O)N[C@H](Cc1ccccc1)CO3 | nM | 332
Cc1cc(CCNC(=O)[C@@H]2CC(=O)N(C)[C@@H](CC(C)C)C(=O)N(C)[C@H](CC(C)C)C(=O)N[C@H](Cc3ccccc3)COc3cnc4ccccc4c3C(=O)N2)on1 | nM | 106
